Assay: NCI Yeast Anticancer Drug Screen. Data for the mlh1 rad18 strain (AID 175)
Settings: S. cerevisiae mlh1 rad18 strain growth inhibition; at 50.0 µM; stronger effect = higher value
About 79,000 compounds went through this panel and 15% of them were active in at least one assay; those are over-represented in the sample as a whole. Calls of active or inactive are those of the source. Rule as the data show it: active = growth inhibition above about 70%; inactive = the rest.
endpoint: growth inhibition

Request: May I ask what growth inhibition has been recorded for COc1c(O)cc2oc3cc(O)c(CC=C(C)C)c(O)c3c(=O)c2c1CC=C(C)C ?
Result: 87.2% (active)

Request: I would be grateful if you could share the reported growth inhibition for C[C@H](CCC(=O)O)[C@H]1CC[C@H]2[C@@H]3[C@H](O)C[C@@H]4C[C@H](O)CC[C@]4(C)[C@H]3CC[C@]12C .
Result: 90.2% (active)

Request: If you can, please state the reported growth inhibition value of O=C(NNc1ccnc2cc(Cl)ccc12)/C(=C/c1ccc2c(c1)OCO2)NC(=O)c1ccccc1 .
Result: 93.1% (active)

Request: Form field: reported growth inhibition of COC(=O)C(CC(C)=O)CS(=O)(=O)CC(=O)C(=O)Nc1cccc([N+](=O)[O-])c1 (centres undefined)
Result: 99.2% (active)
